experiment: Drug stability in simulated gastric fluid with pepsin
Assay type: in vitro ADME
recorded_conditions: simulated gastric fluid with pepsin 40 mg/mL, pH 1.3, SGF pH 1.3, pepsin 40 mg/mL, 37°C; read-out: t½ (converted)
metric: half-life at 8.3 µM (h)

compound="C=CCSC[C@H](NC(C)=O)C(=O)Oc1cc(C(C)C)ccc1C [codrug 4, N-Ac-Cys(Allyl)-CAR]" unit_abbreviation=h result=5.79

---

experiment: Water solubility (HPLC)
Format: physicochemical
recorded_conditions: thermodynamic from solid, room temperature, mean of three experiments (SD)
metric: solubility at 15 min (µg/mL)

smiles_code=C=CCSC[C@H](NC(C)=O)C(=O)Oc1cc(C(C)C)ccc1C unit_abbreviation=µg/mL result=150
